- Tested on: HEK293 cells
- ASSAY INFO: FACS cell binding selectivity
- Type: cell-based
- RUN CONDITIONS: directly labeled (ALEXA FLUOR 488) antibodies, 10 μg/ml
- Method: To determine the specificity of the anti-EGFRvIII mAbs, their binding to HEK293, HEK293 cells expressing EGFRvIII (HEK293/EGFRvIII) and A431 cells, was analyzed by fluorescence activated cell sorting (FACS). […] Populations positively expressing EGFRvIII were isolated via fluorescence activated cell sorting (FACS). […] MFI: Mean Fluorescence Intensity.
METRIC: Parental HEK293 MFI

MOLECULE | ASSAY RESULT
H1H1915N: human IgG1 Fc anti-EGFRvIII antibody with variable domains 1915; HCVR/LCVR SEQ ID NOs 82/90 (antibody, V domains shown, human IgG1 Fc) VH: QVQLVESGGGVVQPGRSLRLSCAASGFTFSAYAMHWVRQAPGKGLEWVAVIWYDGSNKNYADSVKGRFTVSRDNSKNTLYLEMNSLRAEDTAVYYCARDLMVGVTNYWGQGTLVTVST VL: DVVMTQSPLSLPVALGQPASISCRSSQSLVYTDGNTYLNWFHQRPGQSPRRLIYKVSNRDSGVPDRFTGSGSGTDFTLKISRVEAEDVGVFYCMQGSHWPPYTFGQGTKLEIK | 3461
H1H1913N: human IgG1 Fc anti-EGFRvIII antibody with variable domains 1913; HCVR/LCVR SEQ ID NOs 130/138 (antibody, V domains shown, human IgG1 Fc) VH: QVQLQQWGAGLLKPSETLSLTCAVYGGSFSGDYWSWIRQSPGKGLEWIGEINHSGSTNYNPSLKSRVTISIDTSKNQFSLKLSSVTAADTAVYYCARGGGDYYYGMDVWGLGTTVTVSS VL: AIQMTQSPSSLSASVGDRVTITCRASQGIGNDLGWYQQKPGKAPNLLIYATSSLQSGVPSRFSGSGSGTDFTLTISSLQPEDFATYYCLQDYNYPWTFGQGTKVEIK | 4801
H1H1911N: human IgG1 Fc anti-EGFRvIII antibody with variable domains 1911; HCVR/LCVR SEQ ID NOs 50/58 (antibody, V domains shown, human IgG1 Fc) VH: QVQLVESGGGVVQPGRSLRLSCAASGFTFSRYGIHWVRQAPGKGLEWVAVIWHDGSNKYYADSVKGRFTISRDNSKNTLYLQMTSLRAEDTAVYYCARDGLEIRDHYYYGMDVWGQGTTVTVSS VL: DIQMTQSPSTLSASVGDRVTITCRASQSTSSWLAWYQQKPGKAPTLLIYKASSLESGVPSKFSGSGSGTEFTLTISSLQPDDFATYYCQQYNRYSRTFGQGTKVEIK | 3593
